Taken from paper PMC7293934.

- target.of.assay: GluN1/2AC1/2BC2 (triheteromeric GluN1/2A/2B) (Rattus norvegicus, UniProt P35439+Q00959+Q00960)
- Sequence (Q00959 23-1464, other chains not shown): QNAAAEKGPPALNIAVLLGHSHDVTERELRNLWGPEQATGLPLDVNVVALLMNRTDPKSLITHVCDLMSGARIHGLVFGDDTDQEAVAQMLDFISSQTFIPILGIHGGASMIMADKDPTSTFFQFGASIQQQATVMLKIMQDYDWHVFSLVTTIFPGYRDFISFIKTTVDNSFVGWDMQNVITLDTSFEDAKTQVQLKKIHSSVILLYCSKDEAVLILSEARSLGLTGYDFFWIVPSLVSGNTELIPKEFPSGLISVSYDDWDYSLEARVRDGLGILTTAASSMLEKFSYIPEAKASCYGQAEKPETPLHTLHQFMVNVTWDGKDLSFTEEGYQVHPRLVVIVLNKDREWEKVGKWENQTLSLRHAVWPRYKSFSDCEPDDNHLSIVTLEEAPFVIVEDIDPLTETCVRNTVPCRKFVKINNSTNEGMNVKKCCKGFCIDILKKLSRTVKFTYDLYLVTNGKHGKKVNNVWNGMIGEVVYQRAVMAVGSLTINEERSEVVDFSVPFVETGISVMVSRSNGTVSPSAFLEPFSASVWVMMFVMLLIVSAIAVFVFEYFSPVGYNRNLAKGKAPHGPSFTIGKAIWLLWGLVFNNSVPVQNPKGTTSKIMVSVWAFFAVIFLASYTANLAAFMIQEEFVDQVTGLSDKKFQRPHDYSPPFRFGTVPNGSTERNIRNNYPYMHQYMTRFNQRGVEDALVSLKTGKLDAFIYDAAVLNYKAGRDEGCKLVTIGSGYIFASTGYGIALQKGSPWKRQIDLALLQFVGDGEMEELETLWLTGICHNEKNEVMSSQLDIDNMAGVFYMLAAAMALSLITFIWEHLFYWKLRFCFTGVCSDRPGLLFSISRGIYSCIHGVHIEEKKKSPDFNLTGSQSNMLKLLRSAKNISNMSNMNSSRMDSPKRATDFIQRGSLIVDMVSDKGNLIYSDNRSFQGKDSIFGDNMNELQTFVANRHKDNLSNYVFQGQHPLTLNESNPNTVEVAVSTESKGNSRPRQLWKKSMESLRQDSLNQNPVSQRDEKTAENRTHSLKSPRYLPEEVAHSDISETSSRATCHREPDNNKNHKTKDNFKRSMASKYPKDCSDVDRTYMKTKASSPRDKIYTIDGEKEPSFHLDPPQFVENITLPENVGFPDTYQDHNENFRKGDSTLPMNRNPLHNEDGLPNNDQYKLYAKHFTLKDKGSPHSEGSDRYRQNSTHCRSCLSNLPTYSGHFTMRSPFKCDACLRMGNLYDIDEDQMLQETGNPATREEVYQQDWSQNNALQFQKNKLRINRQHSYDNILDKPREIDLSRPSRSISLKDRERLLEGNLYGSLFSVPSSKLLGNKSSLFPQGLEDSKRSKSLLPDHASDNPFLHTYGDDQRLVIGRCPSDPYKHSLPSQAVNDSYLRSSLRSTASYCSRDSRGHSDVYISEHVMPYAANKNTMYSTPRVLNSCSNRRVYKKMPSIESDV
assay.endpoint: pEC50
Lab note: report pEC50 as minus log10 of the concentration in molar units, number only.

Lookup: Which measured pEC50 value corresponds to CC(C)(C)c1ccc(-c2nc3n(c(=O)c2C#N)CCCS3)cn1 ?
Found: 4.71

###

- target.of.assay: GluN1/2CC1/2CC2-NK (Rattus norvegicus, UniProt P35439+Q00961, N612K)
- Sequence (Q00961 20-836 N612K, other chains not shown): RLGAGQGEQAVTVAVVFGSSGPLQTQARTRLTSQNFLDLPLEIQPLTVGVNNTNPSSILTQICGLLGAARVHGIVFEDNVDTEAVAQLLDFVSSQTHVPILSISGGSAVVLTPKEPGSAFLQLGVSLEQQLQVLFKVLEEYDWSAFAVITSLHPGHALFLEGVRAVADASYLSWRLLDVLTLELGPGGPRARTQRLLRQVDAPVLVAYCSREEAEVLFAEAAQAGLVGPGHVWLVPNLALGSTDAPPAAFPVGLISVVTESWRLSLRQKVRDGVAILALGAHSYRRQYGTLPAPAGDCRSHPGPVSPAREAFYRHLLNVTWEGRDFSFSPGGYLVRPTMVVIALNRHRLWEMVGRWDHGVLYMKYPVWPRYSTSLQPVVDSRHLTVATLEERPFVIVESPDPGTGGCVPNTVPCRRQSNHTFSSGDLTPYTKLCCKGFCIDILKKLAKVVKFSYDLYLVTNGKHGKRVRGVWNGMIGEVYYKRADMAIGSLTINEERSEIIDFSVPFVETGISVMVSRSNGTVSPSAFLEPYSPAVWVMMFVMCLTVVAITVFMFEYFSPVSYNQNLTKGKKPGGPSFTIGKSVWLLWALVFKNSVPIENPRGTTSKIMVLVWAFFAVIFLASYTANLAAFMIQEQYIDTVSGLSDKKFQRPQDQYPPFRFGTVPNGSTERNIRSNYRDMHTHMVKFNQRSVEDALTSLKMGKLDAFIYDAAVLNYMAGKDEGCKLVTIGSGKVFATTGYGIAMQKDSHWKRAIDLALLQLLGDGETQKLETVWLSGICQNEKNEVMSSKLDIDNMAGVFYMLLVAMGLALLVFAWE
- Format: cell-based
- condition.description: EC50, 100 μM glutamate + 50 μM glycine; without Mg2+
assay.endpoint: pEC50
Lab note: report pEC50 as minus log10 of the concentration in molar units, number only.

Lookup: Which measured pEC50 value corresponds to CC(C)(C)c1ccc(-c2nc3n(c(=O)c2C#N)CCCS3)cn1 ?
Found: 5.30
